Values from ChEMBL document CHEMBL1201862

# Test system: UACC-62
# assay_method_text: NCI tumour cell line growth inhibition, 48 h
Calls of active or inactive are those of the source. Cut-off read from the data, not from the text of the source: active = GI50 up to about 1.1 µM and inactive = higher.
quantity_name: GI50

Here are 5 compounds. What values of GI50 were reported for them?
1. OCC1CCCCN1Cc1nc2cc(Cl)ccc2[nH]1 (stereo unspecified)
2. CN(C(=O)/C=C/c1ccccc1)C1C2CN3CCC(O2)C13 (stereo unspecified)
3. O=C1/C(=C/c2cccc(Cl)c2)CCCc2ccccc21
4. COc1cc(CN(C)N2C(=O)c3cccc4cc([N+](=O)[O-])cc(c34)C2=O)cc(OC)c1OC
5. COc1cccc2c3ccccc3c3nc[nH]c3c12

A.
1: > 100 µM (inactive); 2: > 100 µM (inactive); 3: 13.7 µM (inactive); 4: > 100 µM (inactive); 5: 22.8 µM (inactive)

Q. Could you please provide reported GI50 for `Cc1cc(-c2nc3cc(F)ccc3s2)ccc1N` ? Thanks!
A. 39.7 µM (inactive)

###

# Tested on: OVCAR-8
# assay_method_text: NCI tumour cell line growth inhibition, 48 h
Activity calls are given as the source filed them. Cut-off read from the data, not from the text of the source: active = GI50 up to about 1.1 µM and inactive = higher.
quantity_name: GI50

compound	study_target	quantity_name	readout_value
CCC1(C)NC(c2cnccn2)=NN1c1ccc(Cl)cc1 (stereo unspecified)	OVCAR-8	GI50	> 100 µM (inactive)
CC(=O)NC1C(O)C(O)C(CO)OC1n1ncc(=O)[nH]c1=O (stereo unspecified)	OVCAR-8	GI50	> 100 µM (inactive)
CSc1ccc(/C=C2\CNC/C(=C\c3ccc(SC)cc3)C2=O)cc1	OVCAR-8	GI50	52.4 µM (inactive)

List reported GI50 for each of these compounds:
1. Oc1ccc(O)c(-n2cccn2)c1
2. COc1cccc2c3ccccc3c3nc[nH]c3c12
3. COc1cc(C2c3cc4c(cc3[C@@H](Nc3ccccc3)C3CO[C@@H](OC)[C@H]23)OCO4)cc(OC)c1O (stereo partly specified)
4. O=C(O)CC/C(=N\Nc1nsc2ccccc12)c1ccccc1
5. O=C1CCC(c2nc3cc(Cl)ccc3o2)C(=O)N1 (stereo unspecified)
6. CC(=O)Oc1c(OC(C)=O)c(-c2ccc(O)c(O)c2)c(O)c(O)c1-c1ccc(O)cc1
7. CCOc1ccc(NC(=O)C(=O)Nn2c(N)nnc2N)cc1

A.
1: 40.7 µM (inactive); 2: > 100 µM (inactive); 3: 7.03 µM (inactive); 4: 66.7 µM (inactive); 5: > 100 µM (inactive); 6: 46.2 µM (inactive); 7: > 100 µM (inactive)

Q. Answer briefly: GI50 recorded on OVCAR-8 for `COc1cccc2c1-c1nc(N)c3c(OC)cccc3c1C2=O`
A. 85.5 µM (inactive)

###

# System: NCI-H460
# assay_method_text: NCI tumour cell line growth inhibition, 48 h
Calls of active or inactive are those of the source. Rule as the data show it: active = GI50 up to about 1.1 µM and inactive = higher.
Respond only with the outcome that fits, drawn from active, inactive

Q. # lookup: test call for `CS(=O)(=O)c1ccc2nc(-c3ccc(O)cc3)sc2c1`
A. inactive

Q. // outcome(item) with item = CCCCCCCCCCNC1CC(OC2CC(O)(C(O)CO)Cc3c(O)c4c(c(O)c32)C(=O)c2c(OC)cccc2C4=O)OC(C)C1O (stereo not drawn)
A. active

Q. Assay outcome for `N#Cc1cnsc1` : what was it?
A. inactive

Q. Per the assay record, what outcome was assigned to `Cc1ccc(C(=O)NC(C)C)cc1/N=N/N(C)C` ?
A. inactive

Q. // outcome(item) with item = c1ccc(C2=Nc3nc4ccccc4n3C(c3ccccc3)C2)cc1 (stereo not drawn)
A. inactive
